The origin of these recorded values is PubChem BioAssay (NCI).

Listed here: items and their measured TGI.
- System: MDA-N
- Assay Explanation: NCI tumour cell line growth inhibition, 48 h

These solved cases illustrate the format of a correct answer.
CCN(CC)CCCNc1nc(=O)[nH]c(C)c1C(=O)Nc1c2ccccc2nc2ccccc12 ... 23.7 µM
N/C(=N\N=C\c1c[nH]c2cc(C(F)(F)F)ccc2c1=O)NO ... > 10 µM
NC(N)=NC(P(=O)(O)O)P(=O)(O)O ... > 100 µM
COC(=O)[C@]12CSC[C@H]1C[C@H](c1ccccc1OC)N2 ... > 100 µM
COc1ccc(N=C2C(=Nc3ccc(OC)cc3)N(S(=O)(=O)c3ccccc3)C(=S)N2c2ccccc2)cc1 ... > 100 µM

# context switch: different compound, same TGI
MDA-N / TGI / CSC1=NC(C(N)=O)C(N)N1C (centres undefined) : value? > 100 µM

###

- Test system: DMS 114 small cell lung
- Assay Explanation: NCI tumour cell line growth inhibition, 48 h
Measurement Label: TGI (µM)
Give the value in µM but do not write µM after it.

Worked examples follow.
CCCc1c[nH]c(-c2ccc(-c3cc(CCC)c(C=O)[nH]3)s2)c1 ... 27.8
CCSC1(SCC)CC(Cc2ccc(OC)cc2)N(C=NC(C)(C)C)C1 (stereo unspecified) ... 43.4
CCOC(=O)c1cc2c(nc1N)-c1ncccc1CC2 ... 33

Requested field: TGI. Item: `COc1cc(-c2cc(=O)c3c(O)c(OC)c(OC)c(OC)c3o2)ccc1O` 77.8

###

- System: T-47D breast
- Assay Explanation: NCI tumour cell line growth inhibition, 48 h
Reported TGI values for a set of compounds

CCCCCC(=O)Nc1nc[nH]c1C(N)=O ... > 100 µM
O=P(NC12CC3CC(CC(C3)C1)C2)(N1CC1)N1CC1 ... > 100 µM
O1C2C1C1OC1C1OC1C1OC21 (stereo not drawn) ... > 100 µM
O=[As](O)(O)c1ccc(N=Nc2ccc([As](=O)(O)O)cc2)cc1 ... > 100 µM

Quick check: TGI of O=C(O)c1ccccc1CC1Cc2ccc3c(c2C1=O)CCC3 (stereo not drawn) ? > 100 µM

Entry under review: CN1C(=O)N/C(=C\c2ccc(S(=O)(=O)N/N=C\C(O)C(O)C(O)CO)cc2)C1=O (stereo not drawn) . Reported TGI? > 100 µM

Could you tell me which TGI is on file for `N/C(=N\N=C\c1c[nH]c2cc(C(F)(F)F)ccc2c1=O)NO` ? > 10 µM

Look up TGI: `O=C(Nc1ccc(Cl)cc1F)c1cc(I)ccc1O` 6.3 µM

Quick check: TGI of COc1ccc(C2=NN(C(=O)c3cc(OC)c(OC)c(OC)c3)C(c3ccc(Cl)cc3)C2)cc1OC (stereo not drawn) ? > 100 µM

Quick one: TGI for CCOC(=O)C1=C(C)NC2SC(=O)/C(=C\c3ccccc3O)N2C1c1ccccc1 (stereo not drawn) ? 51.7 µM

// TGI lookup, key: `Cc1ccc(C)c(NC(=O)NCc2ccc(Cl)cc2)c1` > 100 µM

Could you tell me which TGI is on file for CN(C)c1ncnc2c1nnn2C1OC(CO)C(O)C1O (stereo not drawn) ? 2.81 µM

Entry `CN(C)c1nc2n(CCO)c(-c3ccccc3)c(-c3ccccc3)nc-2c(=O)n1` has what TGI? > 100 µM

Find the recorded TGI belonging to c1ccc(C2SCc3nc4cc5ccccc5cc4n32)cc1 (stereo not drawn) and report it. > 100 µM

Tell me the measured TGI of O=c1c2ccccc2n2n1CC(O)C2 (stereo not drawn) , please. > 100 µM

Quick one: TGI for `Cn1cc(-c2cnc(-c3cn(C)c4ccccc34)cn2)c2ccccc21` ? > 100 µM

Item O=C(O)NCc1ccccc1 (tested in a mixture with another compound) has what recorded TGI? > 81.6 µM

Reported TGI for `COc1cc(N/N=C/C#N)cc(OC)c1OC` : what is it? > 10 µM

If you can, please state the reported TGI value of `CO/N=C(\C)c1cccc(Nc2cc(-c3ccccc3)nc3c(O)cccc23)c1` . 26.7 µM

Need TGI of `CC/C=C\C/C=C\C[C@H](O)C/C=C1/C(=O)C=C[C@@H]1C/C=C\CCCC(=O)O` , thanks. 20.1 µM

Requested field: TGI. Item: `CC1CCN(CCCCCOc2ccc3oc4cc(Cl)ccc4c(=O)c3c2)CC1` 16.4 µM

Would you kindly share the measured TGI for `CCOC(=O)C(C)(C(=O)OCC)/C(Cl)=C\Cl` ? > 100 µM

TGI lookup needed for O=C1C(C(c2ccccc2)N2CCOCC2)=C(O)C(c2ccccc2)N1c1ccccc1 (stereo not drawn) , thanks. > 10 µM
